system: M14 melanoma; test: NCI-60 one-dose screen, 48 h; details: 10 µM unless noted
The panel holds about 83,000 compounds, 20% with a hit somewhere; the sample as a whole holds those more often. Active and inactive are the calls of the source. How the source made its calls: active means growth percent below 10; inactive means the rest.
In this exercise, the only acceptable responses are Yes for active, No for inactive

compound	test_system	class_assignment
CCCCCCCCCN(CCCCCCCCC)C(C)C(=O)c1ccc2cc(Br)c3ccccc3c2c1 (centres undefined)	M14 melanoma	No
CCCCCC1CCCCN1C(=O)OCCCC (centres undefined)	M14 melanoma	No
COc1ccc(CC(C#N)c2ccc(Cl)cc2)cc1 (centres undefined)	M14 melanoma	No
COc1ccc(-c2cc(-c3ccc(Cl)cc3)nc(NCCCCNc3ccnc4cc(Cl)ccc34)n2)cc1	M14 melanoma	No
COc1ccc(C2CC(c3ccc4ccccc4c3)=NN2c2nc(O)c(C3=c4cc(OC)ccc4=NC3=O)s2)cc1 (centres undefined)	M14 melanoma	Yes

input: Look up the recorded call for Cc1ccc(S(=O)(=O)N/N=C2\CC3CCC2(C)C3(C)C)cc1 (centres undefined) in this test.
output: No

input: Would you kindly repeat that for CC1Cc2c(Cl)ncnc2N(C)c2ccc(O)cc21 (centres undefined) ?
output: No

input: Would you kindly repeat that for `C=C(C)[C@@H]1CC[C@]2(C(=O)NCCNCCNC(=O)OC(C)(C)C)CC[C@]3(C)[C@H](CC[C@@H]4[C@@]5(C)CCC(=O)C(C)(C)[C@@H]5CC[C@]43C)[C@@H]12` ?
output: No

input: Would you kindly repeat that for CCOC(=O)c1nn(C2CCCCO2)c2ccc(NC(=O)CN3CCOCC3)cc12 (centres undefined) ?
output: No
